B1: ATGL (PNPLA2, patatin-like phospholipase domain-containing protein 2), human, full length / perilipin-1, mouse (mPlin1) (parent)
chain 1: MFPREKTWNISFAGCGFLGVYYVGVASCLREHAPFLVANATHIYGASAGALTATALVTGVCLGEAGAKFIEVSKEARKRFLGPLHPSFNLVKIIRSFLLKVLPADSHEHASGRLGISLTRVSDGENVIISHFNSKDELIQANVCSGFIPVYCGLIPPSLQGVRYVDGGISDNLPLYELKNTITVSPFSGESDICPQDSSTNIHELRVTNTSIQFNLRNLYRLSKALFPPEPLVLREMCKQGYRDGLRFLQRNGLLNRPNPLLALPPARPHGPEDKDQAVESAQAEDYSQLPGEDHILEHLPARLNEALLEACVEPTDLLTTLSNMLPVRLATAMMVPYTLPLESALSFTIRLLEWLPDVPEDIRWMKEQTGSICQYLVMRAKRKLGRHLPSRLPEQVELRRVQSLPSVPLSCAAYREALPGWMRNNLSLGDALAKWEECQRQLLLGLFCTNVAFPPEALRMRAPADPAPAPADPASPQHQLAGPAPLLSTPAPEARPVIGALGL
chain 2: MSMNKGPTLLDGDLPEQENVLQRVLQLPVVSGTCECFQKTYNSTKEAHPLVASVCNAYEKGVQGASNLAAWSMEPVVRRLSTQFTAANELACRGLDHLEEKIPALQYPPEKIASELKGTISTRLRSARNSISVPIASTSDKVLGATLAGCELALGMAKETAEYAANTRVGRLASGGADLALGSIEKVVEFLLPPDKESAPSSGRQRTQKAPKAKPSLVRRVSTLANTLSRHTMQTTAWALKQGHSLAMWIPGVAPLSSLAQWGASAAMQVVSRRQSEVRVPWLHNLAASQDESHDDQTDTEGEETDDEEEEEESEAEENVLREVTALPNPRGLLGGVVHTVQNTLRNTISAVTWAPAAVLGTVGRILHLTPAQAVSSTKGRAMSLSDALKGVTDNVVDTVVHYVPLPRLSLMEPESEFRDIDNPSAEAERKGSGARPASPESTPRPGQPRGSLRSVRGLSAPSCPGLDDKTEASARPGFLAMPREKPARRVSDSFFRPSVMEPILGRAQYSQLRKKS

variants of: B1; test: LUMIER: Protein A-ATGL variant and firefly luciferase-partner co-expressed in HEK293T, lysates immunoprecipitated on IgG-coated plates, co-precipitated partner measured as luciferase luminescence; conditions: with perilipin-1, mouse (mPlin1), transient co-transfection, IgG-coated LUMITRAC plates, 2 h at 4 °C, three PBS washes, Bright-Glo luciferase reagent, triplicates per assay, two …, parent: -0.37, not graded, scale: log2 fold change of co-immunoprecipitated luminescence relative to wild-type ATGL within each experiment
test.readout: screen value
In your answer, state the number alone without any accompanying words.

For the variant chain 1 F348E , give its measured screen value value.
-0.626

Look up and report measured screen value for this entry: chain 1 L261E
-1.14

Quickly give me recorded screen value for chain 1 S106K
-0.667

Query screen value for chain 1 A434L
0.452

Give screen value for chain 1 V328A
-0.0406

Dear colleague, please send me the reported screen value for chain 1 Q140K when you can.
0.00731

Given chain 1 Q396A , respond with its screen value.
-0.0639

From: paper PMC10958042
